tested on: potato acid phosphatase (PoAP); test: Acid phosphatase reaction, potato acid phosphatase; format: in vitro ADME; conditions: potato acid phosphatase (PoAP); Potato acid phosphatase pH 5, 90 minutes at 37° C.
Positions of bridges follow the written chain, without caps; N, C: chain ends. Non-standard residues stand in square brackets, D forms with d. Residues, ends and D or L forms follow the SMILES beside them. pS = N[C@@H](COP(=O)(O)O)C(=O)O
attribute-measured: remaining at 1.5 h, 0.1 mg/mL (%)
Give the number; % is assumed, so skip it.

### Prompt // returns reported remaining at 1.5 h, 0.1 mg/mL for input CC(C)C[C@@H]1NC(=O)[C@H](COP(=O)(O)O)NC(=O)[C@@H]2CSSC[C@@H]3NC(=O)[C@H](C)NC(=O)[C@@H]4CCCN4C(=O)[C@H](CC(N)=O)NC(=O)[C@H](CSSC[C@H](N)C(=O)N2)NC(=O)[C@H](CSSC[C@@H](C(=O)N[C@@H](Cc2ccc(O)cc2)C(=O)O)NC(=O)CNC(=O)[C@H]([C@@H](C)O)NC3=O)NC1=O [Peptide 1, CCpSLCCNPACTGCY] (H-CC[pS]LCCNPACTGCY-OH; disulfide 1-6, 2-10, 5-13 (inferred); N-terminus and C-terminus assumed)
### Response 77.8

---

biological target: Calf intestinal alkaline phosphatase (CIP) (Bos taurus); construct: purchased New England BioLabs, Ipswich, Mass; M0290S; assay: Alkaline phosphatase reaction (dephosphorylation of peptide substrates, LCMS); assay type: in vitro ADME; conditions: calf, calf intestinal alkaline phosphatase (CIP); Alkaline phosphatase pH 8, 90 minutes at 37° C.
Sequence (P19111 20-506): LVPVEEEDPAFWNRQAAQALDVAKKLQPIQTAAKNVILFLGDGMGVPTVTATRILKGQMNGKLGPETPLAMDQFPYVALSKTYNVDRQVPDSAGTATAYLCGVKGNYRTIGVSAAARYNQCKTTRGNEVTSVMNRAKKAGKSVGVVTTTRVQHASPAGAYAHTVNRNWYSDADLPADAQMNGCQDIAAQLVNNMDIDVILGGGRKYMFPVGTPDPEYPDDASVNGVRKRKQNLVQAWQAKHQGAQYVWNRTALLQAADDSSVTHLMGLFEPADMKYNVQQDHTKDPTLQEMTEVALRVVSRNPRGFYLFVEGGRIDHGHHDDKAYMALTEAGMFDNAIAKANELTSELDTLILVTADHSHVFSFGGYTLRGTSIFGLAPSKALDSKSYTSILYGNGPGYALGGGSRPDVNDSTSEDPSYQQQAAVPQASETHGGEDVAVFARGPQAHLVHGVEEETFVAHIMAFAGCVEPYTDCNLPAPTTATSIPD
Positions of bridges follow the written chain, without caps; N, C: chain ends. Non-standard residues stand in square brackets, D forms with d. Residues, ends and D or L forms follow the SMILES beside them. pS = N[C@@H](COP(=O)(O)O)C(=O)O
attribute-measured: remaining at 1.5 h, 0.1 mg/mL (%)
Give the number; % is assumed, so skip it.

### Prompt // returns reported remaining at 1.5 h, 0.1 mg/mL for input CC(C)C[C@@H]1NC(=O)[C@H](COP(=O)(O)O)NC(=O)[C@@H]2CSSC[C@@H]3NC(=O)[C@H](C)NC(=O)[C@@H]4CCCN4C(=O)[C@H](CC(N)=O)NC(=O)[C@H](CSSC[C@H](N)C(=O)N2)NC(=O)[C@H](CSSC[C@@H](C(=O)O)NC(=O)CNC(=O)[C@H]([C@@H](C)O)NC3=O)NC1=O [Peptide 2, CCpSLCCNPACTGC] (H-CC[pS]LCCNPACTGC-OH; disulfide 1-6, 2-10, 5-13 (inferred); N-terminus and C-terminus assumed)
### Response 0

meta.source: patent US20140179607A9
